# System: CAMK1
# condition-info: concentration: 1 μM,replicates: in singlicate; n = 1;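 also: KINOMEscan kinase panel screen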

molecule	%Inh, %
Cn1ccc2ncnc(Oc3ccc(NC(=O)Nc4cnn(C(C)(C)C)c4)c(Cl)c3)c21	9
CC(=O)Nc1nc2cnc(Nc3cc(NC(=O)c4cccc(CC(C)(C)C#N)c4)ccc3C)nc2s1	4
O=C(Nc1cccc(Oc2ccc3nccn3n2)c1)Nc1cccc(C(F)(F)F)c1	5
COc1cccc(OC)c1C(=O)Nc1cccc(-c2nn3ccccc3c2-c2ccnc(Nc3cccc(F)c3)n2)c1	19
Cn1ccc2ncnc(Oc3ccc(NC(=O)Nc4cc(C(C)(C)C)on4)c(Cl)c3)c21	17
Cn1ccc2ncnc(Oc3ccc(NC(=O)Nc4cccc(C(F)(F)F)c4)c(F)c3)c21	0
Cl.Cl.NC[C@H](CC1CCCCC1)NC(=O)c1ccc(-c2ccnc3[nH]ccc23)s1	37
COc1cc2ncn(-c3cc(OCC4CCCCC4)c(C(N)=O)s3)c2cc1OC	13
C[C@@H]1CNc2c(sc3ccc4nc(-c5ccc(O)cc5)ccc4c23)C(=O)N1	16
COc1ccc(Nc2nccc(N3CCC(NC(=O)c4cccc(C#N)c4)C3)n2)cc1 (centres unmarked)	0
CC(C)c1nc(-c2cccc(NS(=O)(=O)c3ccccc3)c2)c(-c2ccnc(Nc3ccc4c(c3)CN(C)CC4)n2)s1	57
Cc1cccc(-c2nc(Nc3ccncc3)c3sccc3n2)n1	24
CN1CCN(CCCNc2nccc(-c3c(-c4ccc(F)cc4)nn4cc(C(N)=O)ccc34)n2)CC1	31
Cn1ccc2ncnc(Oc3ccc(NC(=O)Nc4cncc(C(F)(F)F)c4)c(Cl)c3)c21	0
FC(F)(F)c1cc(Br)cc(Nc2nccc(-c3cnn4ncccc34)n2)c1	23
Cc1ccn2nc(-c3ccc(F)cc3)c(-c3ccncc3)c2c1.Cl	16
COC(=O)c1cccc(NC(=O)NC2CCN(c3ccnc(NCc4ccc(F)cc4)n3)CC2)c1	0

###

# System: LIMK2
# condition-info: concentration: 1 μM,replicates: in singlicate; n = 1
result-type: %Inh (%)

1. C[C@@H]1CNc2c(sc3ccc4nc(-c5ccc(O)cc5)ccc4c23)C(=O)N1 0
2. O=C(Nc1cccc(C(F)(F)F)c1)c1cccc(Oc2ccc3nccn3n2)c1 8
3. OCCn1cc(-c2cnc3nnn(Cc4ccc5ncccc5c4)c3n2)cn1 0
4. Cn1ccc2ncnc(Oc3ccc(NC(=O)Nc4cc(C(C)(C)C)on4)c(Cl)c3)c21 17
5. COC(=O)Nc1nc2cc(Oc3ccc(NC(=O)Nc4cc(C(F)(F)F)ccc4Cl)cc3)ccc2[nH]1.Cl 0
6. CSc1nccc(-c2c(-c3ccc(F)cc3)ncn2CCCN2CCOCC2)n1.Cl 0
7. CN1CCN(CCNc2nc3cc(Oc4ccc(NC(=O)Nc5cc(C(F)(F)F)ccc5F)cc4)ccc3[nH]2)CC1.Cl.Cl 2
8. Cc1n[nH]c2cc(Nc3ccnc(Nc4cccc(CN5CCOCC5)c4)n3)ccc12 5

###

# System: WNK4
# condition-info: concentration: 1 μM,replicates: in singlicate; n = 1

molecule	endpoint-unit	%Inh
COC(=O)Nc1nc2cc(Oc3ccc(NC(=O)Nc4cc(C(F)(F)F)ccc4Cl)cc3)ccc2[nH]1.Cl [GW697465]	%	48
CCN1CCN(CCCC(=O)Nc2n[nH]c3nc(-c4ccc(O)cc4)c(Br)cc23)CC1 [SB-731579]	%	0
Cn1ccc2ncnc(Oc3ccc(NC(=O)Nc4cc(C(C)(C)C)on4)c(Cl)c3)c21	%	0
CCn1c(-c2nonc2N)nc2cncc(Br)c21 [SB-738004]	%	39
CS(=O)(=O)Nc1ccc(-c2ccnc3[nH]ccc23)cc1 [GSK993273]	%	0
CCOC(=O)N1CCC(n2cnc(-c3ccc(F)cc3)c2-c2ccnc(N)n2)CC1 [SB-219952]	%	0
COc1cc2nccc(Nc3ccc(Oc4ccccc4)cc3)c2cc1OC.Cl [GI261656]	%	28
COc1cc2ncn(-c3cc(OCC4CCCCC4)c(C(N)=O)s3)c2cc1OC [GSK204559]	%	0
CCCC(=O)Nc1n[nH]c2ncccc12 [SB-601436]	%	14
